assay: qHTS profiling of Chloroquine Analogs as inhibitors of Plasmodium falciparum (DD2) proliferation; settings: Plasmodium falciparum Dd2 proliferation inhibition; series mostly up to 28.7 µM
Active and inactive are the calls of the source. Calls follow the shape of the full dose curve.
Outcome (select one): active, inactive

Any idea what this test logged for C[N+]1(C)CCC(=C(c2ccccc2)c2ccccc2)CC1 ?
inactive

Any idea what this test logged for CN(C)CCOC(c1ccccc1)c1ccccc1 ?
active

Any idea what this test logged for CCCCCCCCCCOc1cc2c(=O)c(C(=O)OCC)c[nH]c2cc1OCC ?
inactive

Any idea what this test logged for C[C@H]1[C@@H](OC(=O)CCC(=O)O)O[C@@H]2OC3(C)CC[C@H]4[C@H](C)CC[C@@H]1[C@@]24OO3 ?
inactive

Any idea what this test logged for Cc1cccc(C)c1OCC(=O)N[C@@H](Cc1ccccc1)[C@@H](O)C[C@H](Cc1ccccc1)NC(=O)[C@H](C(C)C)N1CCCNC1=O ?
inactive

Any idea what this test logged for COc1cc2c(Nc3ccc(NC(=O)c4ccccc4)cc3)ncnc2cc1OCCCN1CCOCC1 ?
active

Any idea what this test logged for C[C@@H]1[C@@H](C(=O)C[C@H]2O[C@@H]3O[C@]4(C)CC[C@@H]5[C@H](C)CC[C@@H]([C@H]2C)[C@@]35OO4)O[C@@H]2O[C@]3(C)CC[C@H]4[C@H](C)CC[C@@H]1[C@@]24OO3 ?
active

Any idea what this test logged for NC(=NCc1ccccc1)NC(=O)c1nc(Cl)c(N)nc1N ?
inactive

Any idea what this test logged for O=C(O)c1cn(C2CC2)c2cc(N3CCNCC3)c(F)cc2c1=O ?
inactive

Any idea what this test logged for C=Cc1c(C)c2cc3nc(cc4[nH]c(cc5nc(cc1[nH]2)C(C)=C5CCC(=O)OC)c(CCC(=O)O)c4C)[C@@]1(C)C3=CC=C(C(=O)OC)[C@H]1C(=O)OC ?
active

Any idea what this test logged for CO[C@H]1O[C@@H]2O[C@@]3(C)CC[C@@H]4[C@@H](C)CC[C@@H]([C@H]1C)[C@@]24OO3 ?
inactive

Any idea what this test logged for C#C[C@]1(O)CC[C@@H]2[C@H]3CCC4=CC(=O)CC[C@H]4[C@H]3C(=C)C[C@@]21CC ?
inactive

Any idea what this test logged for CC[C@H]1OC(=O)[C@H](C)[C@@H](O[C@H]2C[C@@](C)(OC)[C@@H](O)[C@H](C)O2)[C@H](C)[C@@H](O[C@@H]2O[C@H](C)C[C@H](N(C)C)[C@@H]2O)[C@](C)(O)C[C@@H](C)CN(C)[C@H](C)[C@@H](O)[C@]1(C)O ?
inactive

Any idea what this test logged for O[C@H](c1cc(C(F)(F)F)nc2c(C(F)(F)F)cccc12)[C@H]1CCCCN1 ?
inactive

Any idea what this test logged for C[C@@H]1CCC2[C@@H](C)[C@@H](O)O[C@@H]3O[C@@]4(C)CC[C@@H]1[C@@]23OO4 (stereo partly specified) ?
inactive

Any idea what this test logged for C[C@@H]1CC[C@H]2[C@@H](C)C(=O)O[C@@H]3OC4(C)CC[C@@H]1C32OO4 (stereo partly specified) ?
inactive

* * *

test: qHTS profiling of Chloroquine Analogs as inhibitors of Plasmodium falciparum (DD2) proliferation; conditions: Plasmodium falciparum Dd2 proliferation inhibition; series mostly up to 28.7 µM
Active and inactive are the calls of the source. Calls come from the whole dose curve.
Outcome (select one): t for active, f for inactive

Any idea what this test logged for CC(C)N=C(N)N=C(N)Nc1ccc(Cl)cc1 ?
f

Any idea what this test logged for C=CCON=C(C[C@H]1O[C@@H]2O[C@]3(C)CC[C@@H]4[C@H](C)CC[C@@H]([C@H]1C)[C@@]24OO3)[C@H]1O[C@@H]2O[C@]3(C)CC[C@H]4[C@H](C)CC[C@@H]([C@@H]1C)[C@@]24OO3 ?
f

Any idea what this test logged for C[C@@H]1Cc2c([nH]c3cc(Cl)c(F)cc23)[C@]2(N1)C(=O)Nc1ccc(Cl)cc12 ?
f

Any idea what this test logged for COc1ncnc(NS(=O)(=O)c2ccc(N)cc2)c1OC ?
t

Any idea what this test logged for CSc1cccc(NC(=O)CC[C@H]2O[C@@H]3O[C@]4(C)CC[C@H]5[C@H](C)CC[C@@H]([C@@H]2C)[C@@]35OO4)c1 ?
t

* * *

assay: qHTS profiling of Chloroquine Analogs as inhibitors of Plasmodium falciparum (DD2) proliferation; conditions: Plasmodium falciparum Dd2 proliferation inhibition; series mostly up to 28.7 µM
Activity calls are given as the source filed them. Calls follow the shape of the full dose curve.
measurement label: Potency

Recorded results for 8 compounds are shown here.
compound | result
COCC(=O)O[C@]1(CCN(C)CCCc2nc3ccccc3[nH]2)CCc2cc(F)ccc2[C@@H]1C(C)C | inactive
OB1OCc2cc(F)ccc21 | inactive
COc1cc2c(cc1C(F)(F)F)N(C(=O)Nc1cc(F)cc(-c3cccnc3)c1)CC2 | inactive
O=CN(O)CCCP(=O)(O)O | inactive
Cn1cncc1[C@@](N)(c1ccc(Cl)cc1)c1ccc2c(c1)c(-c1cccc(Cl)c1)cc(=O)n2C | inactive
C=CC(C)=C[C@@]1(C)SC(=O)C(C)=C1O | inactive
O=C1C(=O)c2ccccc2C(O)=C1C1CCC(c2ccc(Cl)cc2)CC1 (stereo not drawn) | inactive
CC[C@@H](C)[C@H]1O[C@]2(CC[C@H]1C)C[C@@H]1C[C@@H](CC=C(C)[C@@H](O[C@H]3C[C@H](OC)[C@@H](O[C@H]4C[C@H](OC)[C@@H](O)[C@H](C)O4)[C@H](C)O3)[C@@H](C)C=CC=C3CO[C@@H]4[C@H](O)C(C)=C[C@@H](C(=O)O1)[C@]34O)O2 | inactive

Give its Potency value. Item: CCCCN(CCCC)CC(O)c1cc(Cl)cc2c1-c1ccc(Cl)cc1C2=Cc1ccc(Cl)cc1 (stereo not drawn)
inactive

Give its Potency value. Item: CCCCN(CCCC)CCC(O)c1cc2c(Cl)cc(Cl)cc2c2cc(C(F)(F)F)ccc12 (stereo not drawn)
inactive

* * *

assay: qHTS profiling of Chloroquine Analogs as inhibitors of Plasmodium falciparum (DD2) proliferation; conditions: Plasmodium falciparum Dd2 proliferation inhibition; series mostly up to 28.7 µM
Calls of active or inactive are those of the source. Calls come from the whole dose curve. Numbered stars: 1 amine (or outer) side, 2 acyl side, 3 side chain; on linkers, the order of the positions; unused ones are H or OH. Bridge positions count the residues as written; N and C are the ends. Square brackets hold non-standard residues; d marks the D form. Peptide text beside a SMILES is read from it. I, II: the chains in the order shown. Actinocin(9to1) = Cc1c2oc3c(C)ccc(C(=O)[*:1])c3nc-2c(C(=O)[*:2])c(N)c1=O; NMeV = CN[CH](C(=O)O)C(C)C; Sar = CNCC(=O)O
Outcome (select one): YES (active), NO (inactive)

Any idea what this test logged for Oc1cc(Cl)ccc1Oc1ccc(Cl)cc1Cl ?
YES

Any idea what this test logged for Clc1ccc(COC(Cn2ccnc2)c2ccc(Cl)cc2Cl)c(Cl)c1 (stereo not drawn) ?
NO

Any idea what this test logged for CCOc1ccc(F)cc1C1(O)C(N)=Nc2ccc(Cl)cc21 (stereo not drawn) ?
YES

Any idea what this test logged for CNC(=O)c1cc(Oc2ccc(NC(=O)Nc3ccc(Cl)c(C(F)(F)F)c3)cc2)ccn1 ?
NO

Any idea what this test logged for COc1ccc2nc3cc(Cl)ccc3c(Nc3cc(CN4CCCC4)c(O)c(CN4CCCC4)c3)c2n1 ?
NO

Any idea what this test logged for CC(=O)O[C@@]12CO[C@@H]1C[C@H](O)[C@@]1(C)C(=O)[C@H](O)C3=C(C)[C@@H](OC(=O)[C@H](O)[C@@H](NC(=O)OC(C)(C)C)c4ccccc4)C[C@@](O)([C@@H](OC(=O)c4ccccc4)[C@H]21)C3(C)C ?
NO

Any idea what this test logged for COc1cc(NC(C)CCCN)c2ncccc2c1 (stereo not drawn) ?
NO

Any idea what this test logged for Cc1c2oc3c(C)ccc(C(=O)NC4C(=O)NC(C(C)C)C(=O)N5CCCC5C(=O)N(C)CC(=O)N(C)C(C(C)C)C(=O)OC4C)c3nc-2c(C(=O)NC2C(=O)NC(C(C)C)C(=O)N3CCCC3C(=O)N(C)CC(=O)N(C)C(C(C)C)C(=O)OC2C)c(N)c1=O (stereo not drawn) (I: TVP[Sar][NMeV] / II: TVP[Sar][NMeV]; ester I:1-I:C, II:1-II:C; linker I:N-II:N via Actinocin(9to1); configuration not given here) ?
YES

Any idea what this test logged for CCN(CC)CCCC(C)Nc1ccnc2cc(Cl)ccc12 (stereo not drawn) ?
NO

Any idea what this test logged for Cc1cccc(C)c1OCC(N)C(C)C (stereo not drawn) ?
YES

Any idea what this test logged for C[C@@H]1[C@@H](CC(C[C@H]2O[C@@H]3O[C@]4(C)CC[C@@H]5[C@H](C)CC[C@@H]([C@H]2C)[C@@]35OO4)C(=O)NCc2ccc(F)cc2)O[C@@H]2O[C@]3(C)CC[C@H]4[C@H](C)CC[C@@H]1[C@@]24OO3 (stereo partly drawn) ?
NO

Any idea what this test logged for C[C@H]1[C@@H](CCC(=O)Nc2ccc(F)cc2)O[C@@H]2O[C@]3(C)CC[C@@H]4[C@H](C)CC[C@@H]1[C@@]24OO3 ?
NO

Any idea what this test logged for COc1cc(C=CC(=O)CC(=O)C=Cc2ccc(O)c(OC)c2)ccc1O ?
YES

Any idea what this test logged for CC1=CC(=O)c2ccccc2C1=O ?
NO

Any idea what this test logged for C[C@H]1c2cccc(O)c2C(O)=C2C(=O)[C@]3(O)C(O)=C(C(N)=O)C(=O)[C@@H](N(C)C)[C@@H]3[C@@H](O)[C@@H]21 ?
NO

Any idea what this test logged for CCOc1ccccc1O[C@H](c1ccccc1)[C@H]1CNCCO1 ?
NO

Any idea what this test logged for CCCC(=O)O[C@]1(C(=O)CCl)[C@H](C)C[C@@H]2[C@H]3CCC4=CC(=O)C=C[C@]4(C)[C@@]3(F)C(=O)C[C@@]21C ?
NO

Any idea what this test logged for CN1C[C@H](C(=O)N[C@]2(C)O[C@@]3(O)[C@@H]4CCCN4C(=O)[C@H](Cc4ccccc4)N3C2=O)C[C@@H]2c3cccc4[nH]cc(c34)C[C@H]21 ?
NO
